Target: recombinant human PD-L1(B7-H1)-His-tag protein (catalog #9049-B7, R&D systems) (human) (UniProt Q9NZQ7)
Sequence (Q9NZQ7 19-239 limits assumed): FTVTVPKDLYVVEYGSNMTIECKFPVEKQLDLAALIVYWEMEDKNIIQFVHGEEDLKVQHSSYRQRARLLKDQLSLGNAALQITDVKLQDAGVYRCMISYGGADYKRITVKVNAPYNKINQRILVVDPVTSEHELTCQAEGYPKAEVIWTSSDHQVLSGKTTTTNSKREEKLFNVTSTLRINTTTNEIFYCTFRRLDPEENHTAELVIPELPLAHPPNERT
Experiment: FRET competitive inhibition of PD-L1-His-tag binding to PD-1-Ig, Cheng-Prusoff
ENDPOINT_NAME: Ki (nM)
Numbers only, in nM.

Looking up WL12-DOTAGA (WL12D) (peptide) , I see its Ki listed as 10.4
